target: Ras farnesyl transferase (Homo sapiens, UniProt P49354+P49356); construct: made in house; experiment: In vitro inhibitory activity for Ras farnesyl transferase, K-Ras substrate; type: biochemical; conditions: in vitro farnesyl transferase assay, K-Ras; read-out: K-Ras IC50
Reported pIC50 values for a set of compounds
In simple prose, pIC50 is minus the logarithm base ten of a concentration in moles per litre.

# example entries with known answers
CN1CCN(C(=O)c2cn(Cc3cncn3Cc3ccccc3Cl)cc2-c2cccc3ccccc23)CC1: 8.70
CN1CCN(C(=O)c2cn(Cc3cncn3CCc3ccc(Br)cc3)cc2-c2cccc3ccccc23)CC1: 8.52
COCCN(C)C(=O)c1cn(Cc2cncn2C(C)c2ccccc2)cc1-c1cccc2ccccc12 (stereo in doubt): 8.10
COCCN(C)C(=O)c1cn(Cc2cncn2CCc2ccccc2)cc1-c1cccc2ccccc12: 8.30
O=C(c1ccc(Br)cc1)c1cn(Cc2c[nH]cn2)cc1-c1cccc2ccccc12: 6.31

What does the data say about its pIC50? Entry: "CN1CCN(C(=O)c2cn(Cc3cncn3Cc3ccc(Br)cc3)cc2-c2cccc3ccccc23)CC1"
8.40

Form field: reported pIC50 of "COCCN(C)C(=O)c1cn(Cc2cncn2CCc2ccc(C)cc2)cc1-c1cccc2ccccc12"
8.52

Which value of pIC50 has been reported for "CN1CCN(C(=O)c2cn(Cc3cncn3CCc3ccccc3F)cc2-c2cccc3ccccc23)CC1" in the records?
8.70

pIC50 for "COCCN(C)C(=O)c1nc(Cc2cncn2Cc2ccc(Cl)cc2)sc1-c1cccc2ccccc12" ?
7.52

What value of measured pIC50 is listed for "CN1CCN(C(=O)c2cn(Cc3cncn3Cc3cccc4ccccc34)cc2-c2cccc3ccccc23)CC1" ?
8.66

Dear colleague, I am looking for the recorded pIC50 of the following compound: "COCCN(C)C(=O)c1cn(Cc2cncn2CCc2ccc(OC)cc2)cc1-c1cccc2ccccc12"
8.52

Endpoint output: pIC50 of "COCCN(C)C(=O)c1cn(Cc2cncn2Cc2ccc(C#N)cc2)nc1-c1cccc2ccccc12" . Value?
6.70

Quick one: pIC50 of "CN1CCN(C(=O)c2cn(Cc3cncn3Cc3cccc(Cl)c3)cc2-c2cccc3ccccc23)CC1" ?
8.64

* * *

molecular target: Ras farnesyl transferase (Rattus norvegicus, UniProt Q02293+Q04631); construct: endogenous in cells; host or cells: Rat2 fibroblasts transformed with H-Ras or with an H-Ras/K-Ras C-terminus fusion; test: In vivo (cellular) inhibitory activity for Ras farnesyl transferase, Rat2 cell line which expresses C-Harvey-Ras protein; assay type: cell-based; conditions: Rat2 cell line expressing C-Harvey-Ras; concentration inhibiting 50% of farnesyl bonding of Ras protein; read-out: H-Ras CIC50
pIC50: −log10 of the molar value.
measurement kind: pIC50

Please review the entries below; each comes with its answer.
COCCN(C)C(=O)c1cn(Cc2c[nH]cn2)cc1-c1cccc2ccccc12: 7.00 to 8.00
O=C(c1ccc(-c2ccccc2)cc1)c1cn(Cc2c[nH]cn2)cc1-c1cccc2ccccc12: 4.30 to 6.00
O=C(c1ccccc1Br)c1cn(Cc2c[nH]cn2)cc1-c1cccc2ccccc12: 4.30 to 6.00

Can you look up the measured pIC50 of "O=C(c1cn(Cc2c[nH]cn2)cc1-c1cccc2ccccc12)N1CCCCC1" for me?
4.30 to 6.00

Entry "COC(=O)[C@H](CCSC)NC(=O)c1cn(Cc2c[nH]cn2)cc1-c1cccc2ccccc12" has what pIC50?
4.30 to 6.00

Name the recorded pIC50 for "N#Cc1ccc(Cn2cncc2Cn2cc(C(=O)c3ccsc3)c(-c3cccc4ccccc34)c2)cc1" .
6.00 to 7.00

Look up pIC50 for this compound: "Cc1cccc(C(=O)c2cn(Cc3c[nH]cn3)cc2-c2cccc3ccccc23)c1"
4.30 to 6.00

Which pIC50 reading was recorded for the compound "CSCC[C@H](NC(=O)c1cn(Cc2cncn2Cc2ccc(C#N)cc2)cc1-c1cccc2ccccc12)C(=O)O" ?
< 5.30

Tell me the measured pIC50 of COC(=O)C(CCSC)NC(=O)c1cn(Cc2cncn2Cc2ccc(C#N)cc2)cc1-c1cccc2ccccc12 (stereo in doubt) , please.
< 6.00

What does the record list as pIC50 for "CCOC(=O)c1nc(Cc2cnc[nH]2)oc1-c1cccc2ccccc12" ?
< 4.30

Quick one: pIC50 for "O=C(c1cccc(-c2ccccc2)c1)c1cn(Cc2c[nH]cn2)cc1-c1cccc2ccccc12" ?
4.30 to 6.00

Field request: pIC50 | item: "CN1CCN(C(=O)c2cn(Cc3cncn3Cc3ccc4c(c3)OCO4)cc2-c2cccc3ccccc23)CC1"
7.60

# pIC50 lookup, item "CN1CCN(C(=O)c2cn(Cc3cncn3CCc3ccc4ccccc4c3)cc2-c2cccc3ccccc23)CC1"
7.82

State the recorded pIC50 for this entry: "CN(C)CCN(C)C(=O)c1cn(Cc2cncn2Cc2ccc3c(c2)OCO3)cc1-c1cccc2ccccc12"
6.00 to 7.00

# lookup: pIC50 of "O=C(c1ccsc1)c1cn(Cc2c[nH]cn2)cc1-c1cccc2ccccc12"
4.30 to 6.00

So what does the record say about pIC50 for "COCCN(C)C(=O)c1cn(Cc2cncn2Cc2ccc(F)cc2)cc1-c1cccc2ccccc12" ?
7.82

Fill in the blank: the reported pIC50 of "COCCN(C)C(=O)c1cn(Cc2cncn2CC2CCCCC2)cc1-c1cccc2ccccc12" is ____.
7.52
